Cited source: PubChem BioAssay (NCATS)

- Tested on: CP297
- Assay protocol: qHTS profiling for inhibitors of Plasmodium falciparum proliferation (AID 504749); further: nearly all actives have a fitted effect of over 60% in size
- Condition parameters: P. falciparum in erythrocytes, SYBR Green DNA, 72 h; series mostly up to 28.7 µM
Inconclusive results are not listed. Active and inactive are the calls of the source. The call rests on the fitted dose curve; in most records, active means well fitted inhibition curve with a large enough effect; inconclusive means small, poorly fitted or top-dose-only effect; inactive means flat fitted curve, though single readings scatter.
Returns: one label drawn from 1 (active), 0 (inactive)

Write down the call the test reported for this compound. Item: "CN(C)C(=S)SSC(=S)N(C)C"
1

Next up: "CCC(=O)O[C@H]1CC[C@H]2[C@@H]3CCC4=CC(=O)CC[C@]4(C)[C@H]3CC[C@]12C"
0

Next up: "C[N+]1(CCC(C(N)=O)(c2ccccc2)c2ccccc2)CCCCC1"
0

Next up: "NCc1cccnc1"
0

Next up: "COC(=O)C1=CCCN(C)C1"
0

Next up: "OC(c1ccccc1)(c1ccccc1)C1CCNCC1"
0

Next up: "O=c1n(Cl)c(=O)n(Cl)c(=O)n1Cl"
0
